Collected IC50 values appear next to each entry.
- TESTED TARGET: P450 3A4 (Homo sapiens (Human))
- Sequence (P08684 whole entry): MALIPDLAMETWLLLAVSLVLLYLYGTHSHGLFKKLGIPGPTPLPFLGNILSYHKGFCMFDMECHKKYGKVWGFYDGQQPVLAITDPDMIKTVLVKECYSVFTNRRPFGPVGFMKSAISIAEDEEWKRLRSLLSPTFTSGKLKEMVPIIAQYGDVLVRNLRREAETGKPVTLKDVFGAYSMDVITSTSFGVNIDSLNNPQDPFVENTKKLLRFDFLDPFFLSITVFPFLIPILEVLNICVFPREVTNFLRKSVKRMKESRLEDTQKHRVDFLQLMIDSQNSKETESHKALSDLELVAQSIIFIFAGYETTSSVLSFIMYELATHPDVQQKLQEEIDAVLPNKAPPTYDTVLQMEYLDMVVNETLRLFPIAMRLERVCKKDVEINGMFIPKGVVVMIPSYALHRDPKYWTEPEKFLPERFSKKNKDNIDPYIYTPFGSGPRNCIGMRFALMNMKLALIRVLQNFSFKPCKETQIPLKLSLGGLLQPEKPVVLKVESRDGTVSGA
- PROTOCOL SUMMARY: Cytochrome P450 isoenzyme inhibition assay, hydroxylation of Midazolam
- Format: in vitro ADME
- DETAILS: measured examples from WO 2013/127729 (Table 1)

{"COMPOUND": "CNC(C)C(=O)Nc1ccc(-c2c(-c3ccncc3)nc3cc(C)ccn23)c(C#Cc2ccc(-c3ccon3)cc2)n1 (centres unmarked) [Ex 82, reference compound]", "QUALIFYING SIGN": "=", "IC50 [nM]": 2300}
{"COMPOUND": "CNC(C)C(=O)Nc1ccc(-c2c(-c3ccncc3)nc3cc(C)ccn23)c(C#Cc2ccc3c(ccc(=O)n3C)c2)n1 (centres unmarked) [Ex 81, reference compound]", "QUALIFYING SIGN": "=", "IC50 [nM]": 4000}
{"COMPOUND": "CNC(C)C(=O)Nc1ccc(-c2c(-c3ccncc3)nc3cc(C)ccn23)c(C#Cc2ccccc2)n1 (centres unmarked) [Ex 185, reference compound]", "QUALIFYING SIGN": "=", "IC50 [nM]": 3000}
{"COMPOUND": "CNC(C)C(=O)Nc1ccc(-c2c(-c3ccncc3)nc3cc(C)ccn23)c(C#Cc2ccc3c(c2)OCC(=O)N3C)n1 (centres unmarked) [Ex 94, reference compound]", "QUALIFYING SIGN": ">", "IC50 [nM]": 50000}
{"COMPOUND": "CNC(C)C(=O)Nc1ccc(-c2c(-c3ccncc3)nc3cc(C)ccn23)c(C#Cc2ccc3nc(C)ccc3c2)n1 (centres unmarked) [Ex 64, reference compound]", "QUALIFYING SIGN": "=", "IC50 [nM]": 2100}
